# Measurement Target: T1, cynomolgus monkey GITR-Fc (cynomolgus monkey)
# T1 construct: extracellular domain; also called cGITR-FC; cGITR
# Test Details: SPR (BIAcore 2000), mAb captured on anti-mouse Fc, antigen injected
// values below are reported koff
Give a bare numeral; the unit s⁻¹ is implied.

anti-GITR antibody clone 827 (antibody, V domains shown, Murine hybridoma antibody; also called 827-GITR2; 827 GITR-2) VH: EVQLQQSGTVLARPGASVKMSCETSGYSFTTYWIHWIKQRPGQGLEWIATIYPGNSDAGYNQKFRGKAKLTAVTSASTAYMELSSLTNEDSAVYYCTRSSTYPHFDYWGQGTTLTVSS VL: DILLTQSPAILSVSPGERVSFSCRASQSIGTSIHWYQQRTNDSPRLLIKYASESISGIPSRFSGSGSGTDFTLNINSVESEDIADYYCQQTNNWPLTFGAGTKLELK | 0.000473
anti-GITR antibody clone 1649 (antibody, V domains shown, Murine hybridoma antibody; also called 1649-GITR2; 1649 GITR-2) VH: EVQLQQSGTVLAGPGTSVKMSCEASGYSFTTYWIHWIKQRPGQGLEWIGAIYPGNSDAGYNQKFKGKAKLTAVTSASTAYMELSSLTNEDSAVYYCTRSSTYPHFDYWGQGTTLTVSS VL: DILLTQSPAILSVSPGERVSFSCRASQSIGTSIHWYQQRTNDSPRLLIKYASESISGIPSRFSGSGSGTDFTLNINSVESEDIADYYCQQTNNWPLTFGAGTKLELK | 0.00021
anti-GITR antibody clone 698 (antibody, V domains shown, Murine hybridoma antibody; also called 698-GITR2; 698 GITR-2) VH: EVQLQQSGTVLARPGASVKMSCEASGYSFTTYWMHWIKQRPGQGLEWIGAIYPGNSDTGYNQKFKGKAKLTAVTSATTAYMELSSLTDEDSAVYYCTRTSTYPHFDYWGQGTTLTVSS VL: DILLTQSPAILSVSPGERVSFSCRASQSIGTSIHWYQQRTNGSPRLLIKYASESISGIPSRFSGSGSGTDFTLNINSVESEDIADYYCQQSNNWPLTFGAGTKLELK | 0.000707
anti-GITR antibody clone 706 (antibody, V domains shown, Murine hybridoma antibody; also called 706-GITR2; 706 GITR-2) VH: EVQLQQSGTVLARPGASVKMSCEASGYSFTTYWMHWIKQRPGQGLEWIGAIYPGNSDTGYNQKFKGKAKLTAVTSASTAYMELSSLTNEDSAVYYCTRTSTYPHFDYWGQGTTLTVSS VL: DILLTQSPAILSVSPGERVSFSCRASQSIGTSIHWYQQRTNGSPRLLIKYASESISGIPSRFSGSGSGTDFTLNINSVESEDIADYYCQQTNNWPLTFGAGTKLELK | 0.000662

Now, please, on to the next binder.
Consider anti-GITR antibody clone 1718 (antibody, V domains shown, Murine hybridoma antibody; also called 1718-GITR2; 1718 GITR-2) VH: QVQVQQSGPELVKPGASVRISCKASDYTFTNYYIHWVRQRPGQGLEWLGWIYPGKGYTNYNEKFKGKATLTADKSSSTAYMQFSSLTSEDSAVYFCASGYGNYYFPYWGQGTLVTVSA VL: IQMTQSSSYLSVSLGGRVTITCKASDHIKNWLAWYQQKPGNVPRLLMSAATSLETGFPSRFSGSGSGKDFTLTITSLQTEDVATYYCQQYWSTPWTFGGGTKLEIK . Its measured koff is 0.000345
